- ASSAY PROCEDURE: Study 1: open-label 2-way crossover relative bioavailability, tablet vs oral liquid formulation
- Format: in vivo, human
- DETAILS: Study 1, Treatment B: 25 mL × 0.4 mg/mL liquid formulation, oral, healthy subjects
PROPERTY MEASURED: Cmax Geo. Mean (ng/mL)

- COc1ccc(-n2nc(C(N)=O)c3c2C(=O)N(c2ccc(N4CCCCC4=O)cc2)CC3)cc1: 287

* * *

- ASSAY PROCEDURE: Study 3: open-label 3-way crossover, liquid formulation oral vs NGT with Boost Plus vs crushed tablet via NGT
- Format: in vivo, human
- DETAILS: Study 3, TRT B: 5 mg oral liquid formulation (0.4 mg/mL × 12.5 mL) after Boost Plus via NGT
- Experimental: The apixaban liquid formulation was administered orally (PO), via nasogastric tube (NGT) with different flush media, or with an enteral meal (BOOST Plus®). Frel of a crushed tablet administered via NGT versus oral liquid formulation was also evaluated. […] The effect of different flush media [D5W and infant formula (Similac®)] and coadministered nutritional supplement (Boost Plus®) on the liquid formulation's bioavailability was assessed. […]
PROPERTY MEASURED: Cmax Geo. Mean (% CV)

* COc1ccc(-n2nc(C(N)=O)c3c2C(=O)N(c2ccc(N4CCCCC4=O)cc2)CC3)cc1 | 121 ng/mL

* * *

- ASSAY PROCEDURE: Study 3: open-label 3-way crossover, liquid formulation oral vs NGT with Boost Plus vs crushed tablet via NGT
- Format: in vivo, human
- DETAILS: human, plasma, po, 5 mg, Study 3, TRT A: 5 mg oral liquid formulation administered orally; read-out: AUC(0-T) Adj.Geo.Mean
PROPERTY MEASURED: AUC(0-t) (ng·h/mL)

• COc1ccc(-n2nc(C(N)=O)c3c2C(=O)N(c2ccc(N4CCCCC4=O)cc2)CC3)cc1 = 1370

* * *

- ASSAY PROCEDURE: Study 2: open-label 3-way crossover, liquid formulation oral vs NGT with D5W or infant formula flush
- Type: in vivo, human
- DETAILS: Study 2, Treatment A: liquid formulation by mouth
PROPERTY MEASURED: Cmax Adj.Geo.Mean (ng/mL)

- COc1ccc(-n2nc(C(N)=O)c3c2C(=O)N(c2ccc(N4CCCCC4=O)cc2)CC3)cc1: 191

* * *

- ASSAY PROCEDURE: Study 2: open-label 3-way crossover, liquid formulation oral vs NGT with D5W or infant formula flush
- Type: in vivo, human
- DETAILS: human, plasma, po, 5 mg, Study 2, Treatment B: 5 mg (12.5 mL) liquid formulation via NGT followed by 60 mL of D5W via NGT; read-out: T1/2 Mean (converted)
PROPERTY MEASURED: half-life (h)

• COc1ccc(-n2nc(C(N)=O)c3c2C(=O)N(c2ccc(N4CCCCC4=O)cc2)CC3)cc1 [Apixaban] = 10.4

* * *

- ASSAY PROCEDURE: Study 3: open-label 3-way crossover, liquid formulation oral vs NGT with Boost Plus vs crushed tablet via NGT
- Type: in vivo, human
- DETAILS: human, plasma, other: via nasogastric tube (NGT), 5 mg, Study 3, TRT C: 5 mg crushed tablet via NGT; read-out: AUCinf Adj.Geo.Mean
PROPERTY MEASURED: AUC(0-inf) (ng·h/mL)

• COc1ccc(-n2nc(C(N)=O)c3c2C(=O)N(c2ccc(N4CCCCC4=O)cc2)CC3)cc1 = 1330

* * *

- ASSAY PROCEDURE: Study 3: open-label 3-way crossover, liquid formulation oral vs NGT with Boost Plus vs crushed tablet via NGT
- Format: in vivo, human
- DETAILS: human, plasma, po, 5 mg, Study 3, TRT A: 5 mg oral liquid formulation (0.4 mg/mL × 12.5 mL) administered orally; read-out: AUCinf Geo. Mean (% CV)
PROPERTY MEASURED: AUC(0-inf) (ng·h/mL)

- COc1ccc(-n2nc(C(N)=O)c3c2C(=O)N(c2ccc(N4CCCCC4=O)cc2)CC3)cc1: 1380

* * *

- ASSAY PROCEDURE: Study 3: open-label 3-way crossover, liquid formulation oral vs NGT with Boost Plus vs crushed tablet via NGT
- Type: in vivo, human
- DETAILS: human, plasma, po, 5 mg, Study 3, TRT B: 5 mg oral liquid formulation after Boost Plus via NGT; read-out: AUC(0-T) Adj.Geo.Mean
PROPERTY MEASURED: AUC(0-t) (ng·h/mL)

- COc1ccc(-n2nc(C(N)=O)c3c2C(=O)N(c2ccc(N4CCCCC4=O)cc2)CC3)cc1: 1110

* * *

- ASSAY PROCEDURE: Study 2: open-label 3-way crossover, liquid formulation oral vs NGT with D5W or infant formula flush
- Format: in vivo, human
- DETAILS: human, plasma, other: via nasogastric tube (NGT), 5 mg, Study 2, Treatment C: liquid formulation via NGT, infant formula flush; read-out: AUC(0-T) Adj.Geo.Mean
PROPERTY MEASURED: AUC(0-t) (ng·h/mL)

- COc1ccc(-n2nc(C(N)=O)c3c2C(=O)N(c2ccc(N4CCCCC4=O)cc2)CC3)cc1: 1170

* * *

- ASSAY PROCEDURE: Study 3: open-label 3-way crossover, liquid formulation oral vs NGT with Boost Plus vs crushed tablet via NGT
- Assay type: in vivo, human
- DETAILS: human, plasma, other: via nasogastric tube (NGT), 5 mg, Study 3, TRT C: 5 mg crushed tablet via NGT; read-out: AUC(0-T) Adj.Geo.Mean
PROPERTY MEASURED: AUC(0-t) (ng·h/mL)

* COc1ccc(-n2nc(C(N)=O)c3c2C(=O)N(c2ccc(N4CCCCC4=O)cc2)CC3)cc1 [Apixaban] | 1300

* * *

- ASSAY PROCEDURE: Study 2: open-label 3-way crossover, liquid formulation oral vs NGT with D5W or infant formula flush
- Format: in vivo, human
- DETAILS: Study 2, Treatment C: 5 mg (12.5 mL) liquid formulation via NGT followed by 60 mL of infant formula via NGT
- Procedure: Frel of a crushed tablet administered via NGT versus oral liquid formulation was also evaluated. […] The effect of different flush media [D5W and infant formula (Similac®)] and coadministered nutritional supplement (Boost Plus®) on the liquid formulation's bioavailability was assessed. Three open-label, randomized, crossover studies were conducted. […] Serial pharmacokinetics samples were collected. […] Frel was defined as the ratio of AUCinf. […]
PROPERTY MEASURED: Cmax Geo. Mean (ng/mL)

• COc1ccc(-n2nc(C(N)=O)c3c2C(=O)N(c2ccc(N4CCCCC4=O)cc2)CC3)cc1 = 153

Measured values drawn from patent US20160263097A1 for this set.
